List of CC50 at 24 h values.
assay: in vitro; conditions: rat, gh3-tre-luc cells, AC50 (uM) modified / 1000
Structures can show the parent of a compound that is named as a salt.

A selection of reference data follows.
MOLECULE: CCCCNCC(O)c1ccc(O)cc1 (stereo not shown)
METRIC: CC50 at 24 h
VAL: > 50 µM
//
MOLECULE: Cc1cc(F)ccc1-c1cc(N2CC[C@@H](O)[C@H]2CO)ncc1N(C)C(=O)C(C)(C)c1cc(C(F)(F)F)cc(C(F)(F)F)c1
METRIC: CC50 at 24 h
VAL: 12.5 µM
//
MOLECULE: CCCC(=O)Nc1ccc(OCC(O)CNC(C)C)c(C(C)=O)c1 (stereo not shown) [Acebutolol hydrochloride]
METRIC: CC50 at 24 h
VAL: > 20 µM

Record "CC(C)c1cccc(C(C)C)c1N" , field CC50 at 24 h: > 90 µM

###

test: in vitro; details: rat, gh3-tre-luc cells, AC50 (uM) modified / 1000, Tox21_110001=Tox21_302951; viability, 1 nM T3 present, 24 h
METRIC: CC50 at 24 h

So for "C=CC#N" , the logged CC50 at 24 h turned out to be > 90 µM

###

test: in vitro; conditions: rat, gh3-tre-luc cells, AC50 (uM) modified / 1000, Tox21_110001=Tox21_302103; viability, 1 nM T3 present, 24 h
METRIC: CC50 at 24 h

Entry "CN(C)c1ccc(C(c2ccccc2)c2ccc(N(C)C)cc2)cc1" , CC50 at 24 h reported as > 90 µM

###

system: GH3-TRE-Luc cell line; details: read-out: AC50 (uM) modified / 1000; Tox21_110001=Tox21_300060; viability, 1 nM T3 present, 24 h
METRIC: CC50 (µM)
Field format: number, assumed µM, no unit text.

With GH3-TRE-Luc cell line as the test system, CCCOC(=O)c1cc(O)c(O)c(O)c1 [Propyl gallate] showed CC50 of 72.8

###

Listed next: entries and their corresponding CC50 at 24 h.
assay: in vitro; conditions: rat, gh3-tre-luc cells, AC50 (uM) modified / 1000
Counter-ions that a name gives are not always drawn.

Example entries and their recorded answers appear below.
COMPOUND: C1CCC2(CCCCO2)OC1 [1,7-Dioxaspiro[5.5]undecane]
CC50 at 24 h: > 90 µM
--
COMPOUND: CCCCCCCCCCCCCCCCCC[N+](C)(C)CCC[Si](OC)(OC)OC
CC50 at 24 h: > 50 µM
--
COMPOUND: CNC(=S)N(C)C
CC50 at 24 h: > 90 µM
--
COMPOUND: CCOC(=O)[C@@](C)(N)Cc1ccc(O)c(O)c1 [Methyldopate hydrochloride]
CC50 at 24 h: > 20 µM
--
COMPOUND: C=CC[N+](C)(C)CC=C [Diallyldimethylammonium chloride]
CC50 at 24 h: > 90 µM

Field CC50 at 24 h (entry CC(S)C(=O)NCC(=O)O (stereo not shown) ) reads > 50 µM

So for "C=CC(OCC)OCC" , the logged CC50 at 24 h turned out to be > 90 µM

For this compound ( Cc1ccccc1N1C(=O)c2cc(S(N)(=O)=O)c(Cl)cc2NC1C (stereo not shown) ), measured CC50 at 24 h is > 50 µM

###

experiment: in vitro; settings: rat, gh3-tre-luc cells, AC50 (uM) modified / 1000, Tox21_110001=Tox21_202858; viability, 1 nM T3 present, 24 h
METRIC: CC50 at 24 h

Record COc1ccc(C=O)cc1O [3-Hydroxy-4-methoxy-benzaldehyde] , field CC50 at 24 h: > 90 µM

###

experiment: in vitro; conditions: rat, gh3-tre-luc cells, AC50 (uM) modified / 1000
Where a name gives a salt, the structure may show the parent alone.
METRIC: CC50 at 24 h

Would you please look over these solved cases?
COMPOUND: C=CCS(=O)(=O)O [2-Propene-1-sulfonic acid, sodium salt]
CC50 at 24 h: > 90 µM
//
COMPOUND: CO[C@H]1C[C@H](O[C@@H]2/C(C)=C/C[C@@H]3C[C@@H](C[C@]4(CC[C@H](C)[C@@H](C5CCCCC5)O4)O3)OC(=O)[C@@H]3C=C(C)/C(=N/O)[C@H]4OC/C(=C\C=C\[C@@H]2C)[C@]43O)O[C@@H](C)[C@@H]1O
CC50 at 24 h: 33.2 µM
//
COMPOUND: O=C(N[C@@H]1N=C(c2ccccc2F)c2cccc3c2N(CC3)C1=O)c1cc2ccccc2[nH]1
CC50 at 24 h: > 50 µM
//
COMPOUND: CCCCCC/C=C\CCCCCCCC(=O)O [(Z)-Hexadec-9-enoic acid]
CC50 at 24 h: > 90 µM
//
COMPOUND: CN(C)CCCO[C@@H]1[C@H]2OC(C)(C)O[C@H]2O[C@@H]1[C@H](O)CO [Amiprilose hydrochloride]
CC50 at 24 h: > 50 µM

CCNc1nc(NC(C)C(C)C)nc(SC)n1 (stereo not shown) yielded CC50 at 24 h of > 90 µM

# CC50 at 24 h of "COc1ccc(-c2cc(C(F)F)nn2-c2ccc(S(N)(=O)=O)cc2)cc1F" = > 50 µM

###

experiment: in vitro; settings: rat, gh3-tre-luc cells, AC50 (uM) modified / 1000, Tox21_110001=Tox21_111618; viability, 1 nM T3 present, 24 h
Structures can show the parent of a compound that is named as a salt.
METRIC: CC50 at 24 h

Briefly, CC50 at 24 h measured for NNc1ccccc1 [Phenylhydrazine hydrochloride] : > 50 µM

###

target: TRα ligand-binding domain (Homo sapiens); construct: the receptor LBDs expressed as glutathione S-transferase (GST) fusion proteins; purchased; assay: TRa-coa LanthaScreen TR-FRET coactivator (SRC-2 peptide) recruitment, agonist (TOX21_TRA_COA_Agonist_Followup_ratio, aeid 2230); assay type: biochemical; conditions: read-out: EMax (% of Control) tra-coa-agonist-followup-1
Sequence (P10827 163-410 isoform P10827-2 limits assumed, other chains not shown): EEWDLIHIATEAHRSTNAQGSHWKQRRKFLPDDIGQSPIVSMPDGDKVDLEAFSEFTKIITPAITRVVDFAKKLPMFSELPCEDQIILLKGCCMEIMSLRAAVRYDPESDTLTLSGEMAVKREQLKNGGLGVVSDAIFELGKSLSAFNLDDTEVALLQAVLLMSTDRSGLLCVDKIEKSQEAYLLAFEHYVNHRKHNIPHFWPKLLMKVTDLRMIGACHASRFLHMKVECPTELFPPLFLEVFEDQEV
METRIC: Emax
Remember to follow the number with its unit.

COMPOUND: CSCC[C@H](NC(=O)[C@H](Cc1ccc(OS(=O)(=O)O)cc1)NC(=O)[C@@H](N)CC(=O)O)C(=O)NCC(=O)N[C@@H](Cc1c[nH]c2ccccc12)C(=O)N[C@@H](CCSC)C(=O)N[C@@H](CC(=O)O)C(=O)N[C@@H](Cc1ccccc1)C(N)=O [Sincalide, reference compound]
TEST TARGET: TRα ligand-binding domain (Homo sapiens)
Emax: -0.4%

// below: Emax requested for another compound
Tested on TRα ligand-binding domain (Homo sapiens): C[C@H](CCC(=O)NCC(=O)O)[C@H]1CC[C@H]2[C@@H]3[C@H](O)C[C@@H]4C[C@H](O)CC[C@]4(C)[C@H]3C[C@H](O)[C@]12C [glycocholic acid] . Observed Emax: -0.137%

###

test system: GH3-TRE-Luc cell line; conditions: read-out: AC50 (uM) modified / 1000; Tox21_110001=Tox21_302802; viability, 1 nM T3 present, 24 h
METRIC: CC50 (µM)
Provide the reading as a plain figure in µM.

Form field CC50, entry "O=[N+]([O-])c1ccc(Cl)c([N+](=O)[O-])c1" : 10.1

###

system: GH3-TRE-Luc cell line; conditions: read-out: AC50 (uM) modified / 1000; Tox21_110001=Tox21_111008; viability, 1 nM T3 present, 24 h
METRIC: CC50 (µM)
Record the value in µM, omitting the unit from your answer.

Case "CC[C@H]1OC(=O)[C@H](C)[C@@H](O[C@H]2C[C@@](C)(OC)[C@@H](O)[C@H](C)O2)[C@H](C)[C@@H](O[C@@H]2O[C@H](C)C[C@H](N(C)C)[C@H]2O)[C@](C)(O)C[C@@H](C)CN(C)[C@H](C)[C@@H](O)[C@]1(C)O" , GH3-TRE-Luc cell line, CC50 recorded as 35.5

###

experiment: in vitro; conditions: rat, gh3-tre-luc cells, AC50 (uM) modified / 1000
The reader will find reported CC50 at 24 h values listed item by item below.

Solved cases (3 shown):
MOLECULE: CCCCCCCCCCCCCCCCCC(=O)OCC(CC)CCCC (stereo not shown) [2-Ethylhexyl octadecanoate]
VAL: > 90 µM

MOLECULE: CN1[C@@H]2CC[C@H]1CC(NC(=O)n1c(=O)[nH]c3ccccc31)C2 (stereo partly shown)
VAL: > 50 µM

MOLECULE: CCOc1ccc(N=Nc2ccc(/C=C/c3ccc(N=Nc4ccc(OCC)cc4)cc3S(=O)(=O)O)c(S(=O)(=O)O)c2)cc1
VAL: 42.7 µM

Looking up C=CC(C)(CCC=C(C)C)OC(=O)c1ccccc1 (stereo not shown) [Linalyl benzoate] , I found its CC50 at 24 h recorded as 53.7 µM

In plain terms, CCC(=O)OCC(=O)[C@@]1(OC(=O)CC)[C@H](C)C[C@H]2[C@H]3[C@H]([C@@H](O)C[C@@]21C)[C@@]1(C)C=CC(=O)C=C1C[C@H]3Cl [Alclometasone dipropionate] has a documented CC50 at 24 h of > 20 µM

In plain terms, "Brc1cc(Br)c(Oc2cc(Br)c(Br)cc2Br)cc1Br" has a documented CC50 at 24 h of > 50 µM

Entry "Clc1nc(Cl)nc(Nc2ccccc2Cl)n1" ; CC50 at 24 h = > 90 µM
